assay overview: Acute toxicity animal trial, oral administration
Format: in vivo
measurement setup: both sexes, mouse, in vivo, po; orally administrated to KM mice

compound	LD50
CCC(=O)OC1C(O[C@@H]2C(C)[C@H](OC3CC(C)(OC)C(O)C(C)O3)[C@@H](C)C(=O)O[C@H](CC)[C@@](C)(O)[C@H](O)C(C)C(=O)[C@H](C)C[C@@]2(C)OC)OC(C)CC1N(C)C (stereo partly shown)	> 7500 mg/kg
